target: PARP7 (Homo sapiens (Human)); assay: Enzymatic assay for inhibition of PARP7: TR-FRET displacement of biotinylated Probe A from the TIPARP active site; conditions: Table A-1
Sequence (Q7Z3E1 whole entry): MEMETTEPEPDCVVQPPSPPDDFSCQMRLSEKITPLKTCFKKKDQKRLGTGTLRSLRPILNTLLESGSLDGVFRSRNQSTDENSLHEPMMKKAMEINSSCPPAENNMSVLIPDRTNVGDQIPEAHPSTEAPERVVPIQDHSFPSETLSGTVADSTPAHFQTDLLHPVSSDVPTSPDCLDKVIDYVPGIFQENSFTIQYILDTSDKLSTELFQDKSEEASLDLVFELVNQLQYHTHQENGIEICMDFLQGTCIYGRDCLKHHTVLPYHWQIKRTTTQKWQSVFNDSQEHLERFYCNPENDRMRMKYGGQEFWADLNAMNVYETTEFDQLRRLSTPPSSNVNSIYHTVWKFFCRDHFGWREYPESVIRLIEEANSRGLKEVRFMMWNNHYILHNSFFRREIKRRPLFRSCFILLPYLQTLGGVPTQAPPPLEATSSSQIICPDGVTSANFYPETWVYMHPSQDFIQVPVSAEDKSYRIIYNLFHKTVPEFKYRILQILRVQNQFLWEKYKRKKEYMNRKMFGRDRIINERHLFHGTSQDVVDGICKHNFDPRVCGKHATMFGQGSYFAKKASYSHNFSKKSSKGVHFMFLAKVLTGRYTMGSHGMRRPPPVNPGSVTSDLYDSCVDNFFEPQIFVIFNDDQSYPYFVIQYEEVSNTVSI
quantity: IC50

Previously resolved entries follow.
{"molecule": "O=C(c1cncc(OCC2c3ccccc3CN2c2cn[nH]c(=O)c2C(F)(F)F)c1)N1CCN(c2ccc(Cl)cn2)CC1 (stereo not drawn) [Example 376]", "quantity": "IC50", "readout_value": "< 100 nM"}
{"molecule": "N#CCC1c2ccccc2CN1c1cn[nH]c(=O)c1C(F)(F)F (stereo not drawn) [Example 330]", "quantity": "IC50", "readout_value": "≥ 1000 nM"}
{"molecule": "N#Cc1ccc(N2CCN(C(=O)c3cncc(OC[C@H]4c5ccccc5CN4c4cn[nH]c(=O)c4C(F)(F)F)c3)CC2)nc1 [Example 354]", "quantity": "IC50", "readout_value": "100 to 1000 nM"}
{"molecule": "CC(C)c1c(N2Cc3ccc(O[C@H]4CCCNC4)cc3C2)cn[nH]c1=O [Example 293]", "quantity": "IC50", "readout_value": "≥ 1000 nM"}
{"molecule": "N#Cc1ccc(N2CCN(C(=O)COC[C@@H]3CCCN3c3cn[nH]c(=O)c3C(F)(F)F)CC2)nc1 [Example 76]", "quantity": "IC50", "readout_value": "< 100 nM"}

Query block: State its IC50 for this molecule: CN1CCN(CCOc2cccc3c2CN(c2cn[nH]c(=O)c2Cl)C3)CC1 [Example 255]
Result block: ≥ 1000 nM

Query block: State its IC50 for this molecule: N#Cc1ccc(N2CCN(C(=O)CCOC[C@@H]3CCCN3c3cn[nH]c(=O)c3C(F)(F)F)CC2)nc1 [Example 98]
Result block: < 100 nM

Query block: State its IC50 for this molecule: O=C(c1cncc(OC[C@@H]2c3ccccc3CN2c2cn[nH]c(=O)c2C(F)(F)F)c1)N1CCN(c2ccc(C(F)(F)F)cn2)CC1 [Example 384]
Result block: < 100 nM

Query block: State its IC50 for this molecule: CC(C)c1c(N2Cc3ccc(OC4CCCNC4)cc3C2)cn[nH]c1=O (stereo not drawn) [Example 287]
Result block: ≥ 1000 nM

Query block: State its IC50 for this molecule: O=C(C[C@H]1CC[C@H](COc2cn[nH]c(=O)c2C(F)(F)F)O1)N1CCN(c2ncc(Cl)cn2)CC1 (single isomer, unassigned) [Example 565 Isomer B]
Result block: 100 to 1000 nM

Query block: State its IC50 for this molecule: Cc1ccc(N2CCN(C(=O)CCOC[C@H](C)Oc3cn[nH]c(=O)c3C(F)(F)F)CC2)nc1 [Example 682]
Result block: < 100 nM

Query block: State its IC50 for this molecule: N#Cc1ccc(N2CCC3(CCN(C(=O)CCOC[C@@H]4CCCN4c4cn[nH]c(=O)c4C(F)(F)F)C3)CC2)nc1 [Example 103]
Result block: 100 to 1000 nM

Query block: State its IC50 for this molecule: COC[C@@H](COCCC(=O)N1CCN(c2ncc(Cl)cn2)CC1)Oc1cn[nH]c(=O)c1C(F)(F)F (single isomer, unassigned)
Result block: < 100 nM

Query block: State its IC50 for this molecule: N#Cc1ccc(N2CCN(CCCOC[C@@H]3CCCN3c3cn[nH]c(=O)c3C(F)(F)F)CC2)nc1 [Example 90]
Result block: < 100 nM

Query block: State its IC50 for this molecule: O=c1[nH]ncc(N2Cc3cccc(OC4CCOCC4)c3C2)c1C(F)(F)F [Example 194]
Result block: < 100 nM
